biological target: BRD4-BD1 (Homo sapiens (Human)); test: AlphaLisa bromodomain binding assay, BRD4-BD1; conditions: Table 2; read-out: BRD4 IC50
pIC50: −log10 of the molar value.
endpoint: pIC50

- CC(C)(C)S(=O)(=O)N1CCc2ccc(Nc3nc(NCC4CCNCC4)nc4sccc34)cc21 [drawing 56]: 6.00
- CC(C)(C)S(=O)(=O)Nc1cccc(Nc2nc(NC3CCNC3)nc3sccc23)c1 (stereo not shown) [drawing 54]: 5.77
- CN1CCN(c2ccc(Nc3nc(Nc4cccc(NS(=O)(=O)C(C)(C)C)c4)c4ccsc4n3)cc2)CC1 [drawing 52]: 6.41
- CC(C)(C)S(=O)(=O)Nc1cccc(Nc2nc(NCC3CCNCC3)nc3sccc23)c1 [drawing 53]: 5.92
- CC(C)(C)S(=O)(=O)N1CCc2ccc(Nc3nc(NC4CCOC4)nc4sccc34)cc21 (stereo not shown): 5.49
- CC(C)(C)S(=O)(=O)Nc1cccc(Nc2nc(NC3CCNCC3)nc3sccc23)c1 [drawing 51]: 7.03
- O=C(NC1CC1)c1ccn(-c2nc(NC3CCNCC3)nc3sccc23)c1 [drawing 60]: 6.40
- CC(C)(C)S(=O)(=O)N1CCc2ccc(Nc3nc(NC4CCNC4)nc4sccc34)cc21 (stereo not shown) [drawing 58]: 5.59
- CN1CCC(Nc2nc(-n3ccc(C(=O)NC4CC4)c3)c3ccsc3n2)CC1 [drawing 59]: 6.35
- CN1CCC(Nc2nc(Nc3ccc4c(c3)N(S(=O)(=O)C(C)(C)C)CC4)c3ccsc3n2)CC1 [drawing 55]: 6.80

====

Consider the following compounds and their measured pIC50 readings.
target: BRD4-BD1 (Homo sapiens (Human)); test: AlphaLisa bromodomain binding assay, BRD4-BD1; details: Table 6; read-out: BRD4(1) IC50
pIC50: −log10 of the molar value.
endpoint: pIC50

* O=S(=O)(Nc1cccc(-n2ccc3cnc(Nc4ccc(N5CCNCC5)cc4)nc32)c1)C1CC1 [drawing 320] | 6.35
* CN(C)C1CCN2c3ccc(Nc4ncc5ccn(-c6cccc(NS(=O)(=O)C(C)(C)C)c6)c5n4)cc3CC2C1 (centres unmarked) [drawing 445] | 6.98
* CN1CCN(c2ccc(Nc3ncc4ccn(-c5ccc(F)c(NS(=O)(=O)C6CC6)c5)c4n3)cc2)CC1 | 5.83
* CN(C)C1CCN(C(=O)c2ccc(Nc3ncc4ccn(-c5cccc(NS(=O)(=O)C(C)(C)C)c5)c4n3)cc2F)CC1 | 6.61
* CC(C)(C)S(=O)(=O)N1CCc2ccc(Nc3nc(NCC4CCNCC4)nc4sccc34)cc21 [drawing 218] | 5.66
* CC(C)(C)S(=O)(=O)Nc1cccc(Nc2nc(NC3CCN(c4ccccc4)CC3)nc3sccc23)c1 | 5.00
* CC(C)(C)S(=O)(=O)Nc1cccc(-n2ccc3cnc(Nc4ccc5c(c4)CC4CNCCN54)nc32)c1 (centres unmarked) [drawing 404] | 6.41
* CNC1CCN(c2ccc(Nc3ncc4ccn(-c5cccc(NS(=O)(=O)C(C)(C)C)c5)c4n3)cc2F)CC1 | 6.45
* CCC1(S(=O)(=O)Nc2cccc(-n3ccc4cnc(Nc5ccc(N6CCC(N(C)C)CC6)c(F)c5)nc43)c2)CC1 | 5.82
* CN1CCN(c2ccc(Nc3ncc4ccn(-c5cccc(NS(=O)(=O)C(C)(C)C)c5)c4n3)cc2C#N)CC1 | 6.42
* CN(C)C1CCN(Cc2ccc(Nc3ncc4ccn(-c5cccc(NS(=O)(=O)C(C)(C)C)c5)c4n3)cc2F)CC1 | 6.84
* COc1cc(Nc2ncc3ccn(-c4cccc(NS(=O)(=O)C(C)(C)C)c4)c3n2)ccc1N1CCC(N(C)C)CC1 | 6.38
* CN1CCN2c3ccc(Nc4ncc5ccn(-c6cccc(NS(=O)(=O)C(C)(C)C)c6)c5n4)cc3CC2C1 (centres unmarked) | 6.44
* CC1=NCC(C)=C1C1CCCC(c2c[nH]c3nc(N4CCNCC4)ncc23)C1 (centres unmarked) | 5.39
* CN1CCC(NC(=O)c2ccc(Nc3ncc4ccn(-c5cccc(NS(=O)(=O)C(C)(C)C)c5)c4n3)cc2)CC1 | 6.39
* CNC1CCN(c2ccc(Nc3ncc4ccn(-c5cccc(NS(=O)(=O)C(C)(C)C)c5)c4n3)cc2)C1 (centres unmarked) | 6.27
* CN1CCN(c2ccc(Nc3ncc4scc(-c5cccc(NS(=O)(=O)C(C)(C)C)c5)c4n3)cc2F)CC1 | 6.41
* Cc1ccc(-n2ccc3cnc(Nc4ccc(N5CCNCC5)cc4)nc32)cc1NS(=O)(=O)C(C)(C)C | 6.19
* COc1cc(Nc2ncc3scc(-c4cccc(NS(=O)(=O)C(C)(C)C)c4)c3n2)ccc1N1CCC(N(C)C)CC1 | 6.25
* Cc1cnc(Nc2ccc(N3CCN(C)CC3)cc2)nc1Nc1cccc(NS(=O)(=O)C(C)(C)C)c1 [drawing 353] | 6.56
* CN(C)C1CCN(c2ccc(Nc3ncc4ccn(-c5ccc(F)c(NS(=O)(=O)C(C)(C)C)c5)c4n3)cc2F)CC1 [drawing 366] | 7.20
* CN1CCC(Nc2ncc3ccn(-c4cccc(NS(=O)(=O)C(C)(C)C)c4)c3n2)CC1 | 6.55
* CN1CCN(c2ccc(Nc3nc(Nc4cccc(NS(=O)(=O)C(C)(C)C)c4)c4cc[nH]c4n3)cc2)CC1 | 5.77
* CN(C)C1CCN(c2ccc(Nc3ncc4ccn(-c5cccc(NS(=O)(=O)C(C)(C)C)c5)c4n3)cc2)C1 (centres unmarked) | 6.07
* Cc1cnc(Nc2ccc(N3CCN(C)CC3)c(F)c2)nc1Nc1ccc2c(c1)N(S(=O)(=O)C(C)(C)C)CC2 [drawing 246] | 7.03
* CN(C)C1CCN(c2ccc(Nc3ncc4scc(-c5ccc(F)c(NS(=O)(=O)C6(C)CC6)c5)c4n3)cc2F)CC1 | 6.63
* CNCCNc1ccc(Nc2ncc3ccn(-c4cccc(NS(=O)(=O)C(C)(C)C)c4)c3n2)cc1 | 6.39
* CN1CCN(c2ccc(Nc3ncc4ccn(-c5ccc(F)c(NS(=O)(=O)C(C)(C)C)c5)c4n3)cc2)CC1 [drawing 295] | 6.89
* Cc1ccc(Nc2nc(NC3CCNCC3)nc3sccc23)cc1NS(=O)(=O)C(C)(C)C | 6.50
* Cc1cnc(Nc2ccc(N3CCN(C)CC3)cc2)cc1Nc1cccc(NS(=O)(=O)C(C)(C)C)c1 | 5.20
* CC(C)(C)S(=O)(=O)Nc1cccc(-n2ccc3cnc(Nc4ccc(N5CCN(S(C)(=O)=O)CC5)cc4)nc32)c1 | 5.34
* CC(C)(C)S(=O)(=O)Nc1cccc(Nc2nc(NC3CCNCC3)nc3sccc23)c1 [drawing 406] | 5.92
